- TGT: T1, recombinant human CD63 extracellular loop 2 expressed with a C-terminal human Fc tag (human)
- T1 construct: also called hCD63 EC loop 2-hFc; human CD63 EC loop 2-Fc
- ASSAY_METHOD_TEXT: SPR Biacore, mAb captured, 37C
MEASURED_ENDPOINT: 100 nM Ag Bound (RU)
Reply with just the number (in RU).

| BINDER | 100 nM Ag Bound (RU) |
| --- | --- |
| H1M12362N (antibody, V domains shown) VH: QVQLVESGGGLVKPGGSLRLSCAASGFIFSDYYINWIRQAPGKGLEWVSYTSSSGSTTYYEDSVKGRFTMSRDNARNLVYLQMNSLRAEDTAAYYCVRDLRYNDGLDVWGQGTTVTVSS VL: DILLTQSPSSLSASVGDRVTITCRASQSIRTYLNWYQQKPGRAPKLLVYAASSLQSGVPSRFSGSGSGTDFTLTISSLQPEDFATYFCQQSYDNPPITFGQGTRLAIK | 118 |

The value of 100 nM Ag Bound (RU) measured for the binder H2M13022N (antibody, V domains shown, also called H2bM13022N) VH: QVQLVESGGGLVQPGGSLRLSCAASGFIFGDYYINWIRQAPGKGLQWVSYTSSSGSTTYYEDSVKGRFTMSRDNAKNLVYLQMNSLRAEDTAAYYCVRDLRYNDGLDVWGQGTTVIVSS VL: DILLTQSPSSLSAFVGDRVTITCRASQNIRTYLNWYQQKPGRAPKLLVYAASTLQSGVPSRFSGSGSGTDFTLTISSLQPEDFASYFCQQSYDNPPITFGQGTRLAIK turned out to be 107

Entry H2M12387N (antibody, V domains shown, also called H2aM12387N) VH: QVQLEESGGGVVKAGGSLRLSCAASGFTFSDYYMNWIRQAPGKGLEWVSYINNGGYTIYYADSVKGRFTMSRDNAKNSVYLQMNGLRAEDTAFYYCVRDPRSYYGFDYWGQGTLVIVSS VL: DIQMTQSPSSLSASVGDRVTITCRASQSISRFLHWYQQKPGKAPKLLIYGASSLQSGVPSRFSGSGSGTDFTLTISSLQPEDFATYYCQQSYSTPPITFGQGTRLEIK — recorded 100 nM Ag Bound (RU) = 196

Memo: H2M12450N (antibody, V domains shown, also called H2aM12450N; mAb12450) VH: QVQLQESGPKVVKPSETLSLTCTVSGGSISSYYWNWIRQSPGKGLEWIGYTKRGYTDYNPSLRSRVTISEDTSKNQFSLRISSVTAADTAVYYCAQMGWGSHAFDMWGQGTMVAVSS VL: EIVLTQSPGTLSLSPGERATLSCRASQSVNSRYLAWYQQKPGQAPRLLIYGASSRATGIPDRCSGSGSGTDFTLTISRLEPEDFAVYYCQQYGSSPWTFGQGTKVEIK , reported 100 nM Ag Bound (RU): 138

Value of measured 100 nM Ag Bound (RU) for the entry H2M12454N (antibody, V domains shown, also called H2bM12454N) VH: QVQLVESGGGLVKPGGSLRLSCAVSGFTYTDYFMNWIRQAPGKGLEWVSYISNSGAIKYYADSVKGRFTISRDNAKNSLYLQMNGLRADDTAVYYCVRDPRSYYGFDYWGQGTLVTVSS VL: DIQMTQSPSSLSASVGDRVTITCRASQSISNFLNWYQQKPGKAPRLLIYGASNLQSGVPSRFSGGGSGTDFTLTISSLQPADFATYYCQQSFSNPPVTFGQGTRLEIN : 160
